# Test system: human PBMCs
# experiment notes: IL-17 and IFN-γ secretion in PBMCs stimulated by anti-CD3/CD28 in vitro
# Format: cell-based
# experimental conditions: anti-CD3/CD28 stimulation, 48 hours, ELISA, read-out: EC50, decrease of IFN-γ
quantity measured: pEC50
Units for pEC50: none; it is -log10 of a concentration expressed in mol/L.

Fill: pEC50 (human PBMCs) for this molecule CCC(C)C1OC2(CCC1C)CC1CC(CC=C(C)C(OC3CC(OC)C(OC4CC(OC)C(O)C(C)O4)C(C)O3)C(C)C=CC=C3COC4C(O)C(C)=CC(C(=O)O1)C34O)O2 (stereo not shown) 6.01

====

# System: Th17-skewed human CD4+ T cells
# experiment notes: Cytokine secretion in Th17-skewed CD4+ T cells (ELISA)
# Format: cell-based
# experimental conditions: anti-CD3/CD28 + IL-1β + TGF-β (Th17-skewing), 48 hours, ELISA; read-out: EC50, inhibition of IL-21 secretion
# Procedure: The supernatants were analyzed for IL-17, TL-21 and IFN-γ by ELISA.
quantity measured: pEC50
Units for pEC50: none; it is -log10 of a concentration expressed in mol/L.

Fill: pEC50 (Th17-skewed human CD4+ T cells) for this molecule CCC(C)C1OC2(CCC1C)CC1CC(CC=C(C)C(OC3CC(OC)C(OC4CC(OC)C(O)C(C)O4)C(C)O3)C(C)C=CC=C3COC4C(O)C(C)=CC(C(=O)O1)C34O)O2 (stereo not shown) 6.44

====

# System: Th17-skewed human CD4+ T cells
# experiment notes: Cytokine secretion in Th17-skewed CD4+ T cells (ELISA)
# Type: cell-based
# experimental conditions: anti-CD3/CD28 + IL-1β + TGF-β (Th17-skewing), 48 hours, ELISA; read-out: EC50, inhibition of IFN-γ secretion
quantity measured: pEC50
Units for pEC50: none; it is -log10 of a concentration expressed in mol/L.

Kindly indicate its recorded pEC50. Item: CCC(C)C1OC2(CCC1C)CC1CC(CC=C(C)C(OC3CC(OC)C(OC4CC(OC)C(O)C(C)O4)C(C)O3)C(C)C=CC=C3COC4C(O)C(C)=CC(C(=O)O1)C34O)O2 (stereo not shown) 6.27

====

# Test system: human PBMCs
# experiment notes: IL-17 and IFN-γ secretion in PBMCs stimulated by anti-CD3/CD28 in vitro
# Assay type: cell-based
# experimental conditions: anti-CD3/CD28 stimulation, 48 hours, ELISA, read-out: EC50, decrease of IL-17
quantity measured: pEC50
Units for pEC50: none; it is -log10 of a concentration expressed in mol/L.

Kindly indicate its recorded pEC50. Item: CCC(C)C1OC2(CCC1C)CC1CC(CC=C(C)C(OC3CC(OC)C(OC4CC(OC)C(O)C(C)O4)C(C)O3)C(C)C=CC=C3COC4C(O)C(C)=CC(C(=O)O1)C34O)O2 (stereo not shown) 6.38
